Reported normalized RNA/DNA level without ligand (log10) values are given for each entry in this list.
B1: library; a variant is named by its letters at N, in order (parent)
chain: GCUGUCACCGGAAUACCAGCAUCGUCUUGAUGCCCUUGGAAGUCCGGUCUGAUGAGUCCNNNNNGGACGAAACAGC

# Variants of: B1
# method.description: normalized RNA/DNA level without ligand (relative to sTRSVctl = 100) (log10 (% of sTRSVctl)); higher = less ribozyme self-cleavage, higher mRNA level
# reported.conditions: HEK293T, reporter: mCherry (pCS4076), ligand present: no
Give your answer as a number; write no unit.

Sample answers from the record:
Reported normalized RNA/DNA level without ligand (log10) for GCUGUCACCGGAAUACCAGCAUCGUCUUGAUGCCCUUGGAAGUCCGGUCUGAUGAGUCCAAGUUGGACGAAACAGC [AAGUU] was 1.75

Reported normalized RNA/DNA level without ligand (log10) for GCUGUCACCGGAAUACCAGCAUCGUCUUGAUGCCCUUGGAAGUCCGGUCUGAUGAGUCCACAUGGGACGAAACAGC [ACAUG] was 1.81

More entries:
Reported normalized RNA/DNA level without ligand (log10) for GCUGUCACCGGAAUACCAGCAUCGUCUUGAUGCCCUUGGAAGUCCGGUCUGAUGAGUCCGAUGCGGACGAAACAGC [GAUGC] was 1.88

Reported normalized RNA/DNA level without ligand (log10) for GCUGUCACCGGAAUACCAGCAUCGUCUUGAUGCCCUUGGAAGUCCGGUCUGAUGAGUCCCCUCUGGACGAAACAGC [CCUCU] was 1.87

Reported normalized RNA/DNA level without ligand (log10) for GCUGUCACCGGAAUACCAGCAUCGUCUUGAUGCCCUUGGAAGUCCGGUCUGAUGAGUCCUAACGGGACGAAACAGC [UAACG] was 1.87

Reported normalized RNA/DNA level without ligand (log10) for GCUGUCACCGGAAUACCAGCAUCGUCUUGAUGCCCUUGGAAGUCCGGUCUGAUGAGUCCACCUAGGACGAAACAGC [ACCUA] was 1.88

Reported normalized RNA/DNA level without ligand (log10) for GCUGUCACCGGAAUACCAGCAUCGUCUUGAUGCCCUUGGAAGUCCGGUCUGAUGAGUCCAGUAGGGACGAAACAGC [AGUAG] was 1.71

Reported normalized RNA/DNA level without ligand (log10) for GCUGUCACCGGAAUACCAGCAUCGUCUUGAUGCCCUUGGAAGUCCGGUCUGAUGAGUCCCUCGAGGACGAAACAGC [CUCGA] was 1.95

Reported normalized RNA/DNA level without ligand (log10) for GCUGUCACCGGAAUACCAGCAUCGUCUUGAUGCCCUUGGAAGUCCGGUCUGAUGAGUCCUUAUUGGACGAAACAGC [UUAUU] was 1.95

Reported normalized RNA/DNA level without ligand (log10) for GCUGUCACCGGAAUACCAGCAUCGUCUUGAUGCCCUUGGAAGUCCGGUCUGAUGAGUCCCAACCGGACGAAACAGC [CAACC] was 1.99

Reported normalized RNA/DNA level without ligand (log10) for GCUGUCACCGGAAUACCAGCAUCGUCUUGAUGCCCUUGGAAGUCCGGUCUGAUGAGUCCCCGUAGGACGAAACAGC [CCGUA] was 1.65

Reported normalized RNA/DNA level without ligand (log10) for GCUGUCACCGGAAUACCAGCAUCGUCUUGAUGCCCUUGGAAGUCCGGUCUGAUGAGUCCGAGAAGGACGAAACAGC [GAGAA] was 1.41

Reported normalized RNA/DNA level without ligand (log10) for GCUGUCACCGGAAUACCAGCAUCGUCUUGAUGCCCUUGGAAGUCCGGUCUGAUGAGUCCUAAAGGGACGAAACAGC [UAAAG] was 1.84
